assay: Protease stability in simulated intestinal fluids (FaSSIF) (Table 7); assay type: in vitro ADME; settings: fassif with pancreatin, 240 min, 37° C., read-out: Remaining percentage of peptide compound, FaSSIF 240 (min)
Numbered stars: 1 amine (or outer) side, 2 acyl side, 3 side chain; on linkers, the order of the positions; unused ones are H or OH. Bridge positions count the residues as written; N and C are the ends. Square brackets hold non-standard residues; d marks the D form. Peptide text beside a SMILES is read from it. * marks the point of attachment. Lys(Me,(CH2)4NMe(CH2)5CO) = CN(CCCCCC(=O)[*:3])CCCCN(C)CCCC[C@H](N[*:1])C(=O)[*:2]; Trp(7-Me) = Cc1cccc2c(C[C@H](N)C(=O)O)c[nH]c12; 2Nal = N[C@@H](Cc1ccc2ccccc2c1)C(=O)O; 3Pal = N[C@@H](Cc1cccnc1)C(=O)O; Thp = NC1(C(=O)O)CCOCC1; Me2NCH2CH2 = CN(C)CC*; Aib = CC(C)(N)C(=O)O; Sar = CNCC(=O)O
METRIC_NAME: remaining at 4 h, 1 µM (%)
Give the value in % but do not write % after it.

Measured remaining at 4 h, 1 µM of CC(=O)NCCCC[C@@H]1NC(=O)[C@H](Cc2c[nH]c3c(C)cccc23)NC(=O)CCCCCN(C)CCCCN(C)CCCC[C@@H](C(=O)NCC(=O)N[C@@H](Cc2cccnc2)C(=O)N(C)CC(N)=O)NC(=O)C(C)(C)NC(=O)[C@H](Cc2ccc3ccccc3c2)NC(=O)[C@H](Cc2ccc(OCCN(C)C)cc2)NC(=O)C2(CCOCC2)NC1=O [compound 27] ([Trp(7-Me)]K(Ac)[Thp]Y(Me2NCH2CH2)[2Nal][Aib][Lys(Me,(CH2)4NMe(CH2)5CO)]G[3Pal][Sar]-NH2; lactam N-7) : 94

* * *

# IC50 per entry
test system: IL-23 induced STAT3 signaling (IL-23 receptor) in HEK-Blue IL-23 cells; test: Inhibition of IL-23 induced STAT3 signaling in HEK-Blue IL-23 cells, SEAP reporter (Table 9); assay type: cell-based; settings: human IL23 0.25 ng/ml, overnight, read-out: Inhibition of IL-23 induced pSTAT3 (IC50 nM)
Bridge positions count the residues as written; N and C are the ends. Square brackets hold non-standard residues; d marks the D form. Peptide text beside a SMILES is read from it. * marks the point of attachment. Trp(7-Me) = Cc1cccc2c(C[C@H](N)C(=O)O)c[nH]c12; 2Nal = N[C@@H](Cc1ccc2ccccc2c1)C(=O)O; 3Pal = N[C@@H](Cc1cccnc1)C(=O)O; 12Ado = NCCCCCCCCCCCC(=O)O; Aun = NCCCCCCCCCCC(=O)O; Thp = NC1(C(=O)O)CCOCC1; Me2NCH2CH2 = CN(C)CC*; Aib = CC(C)(N)C(=O)O; Sar = CNCC(=O)O
Numbers only; they are read as nM.

Cc1cccc2c(C[C@@H]3NC(=O)CCCCCCCCCCCNC(=O)CC[C@@H](C(=O)N[C@@H](CC(N)=O)C(=O)N[C@@H](Cc4cccnc4)C(=O)N(C)CC(N)=O)NC(=O)C(C)(C)NC(=O)[C@H](Cc4ccc5ccccc5c4)NC(=O)[C@H](Cc4ccc(OCCN(C)C)cc4)NC(=O)C4(CCOCC4)NC(=O)[C@H](CCC(N)=O)NC3=O)c[nH]c12 [compound 2] ([12Ado][Trp(7-Me)]Q[Thp]Y(Me2NCH2CH2)[2Nal][Aib]EN[3Pal][Sar]-NH2; lactam N-8) | 0.28

Moving on to another compound below.
Cc1cccc2c(C[C@@H]3NC(=O)CCCCCCCCCCNC(=O)CC[C@@H](C(=O)N[C@@H](CC(N)=O)C(=O)N[C@@H](Cc4cccnc4)C(=O)N(C)CC(N)=O)NC(=O)C(C)(C)NC(=O)[C@H](Cc4ccc5ccccc5c4)NC(=O)[C@H](Cc4ccc(OCCN(C)C)cc4)NC(=O)C4(CCOCC4)NC(=O)[C@H](CC(C)C)NC3=O)c[nH]c12 [compound 7] ([Aun][Trp(7-Me)]L[Thp]Y(Me2NCH2CH2)[2Nal][Aib]EN[3Pal][Sar]-NH2; lactam N-8) has a reported IC50 of 1.73

* * *

experiment: Chemical stability (relative purity loss) of peptide compounds in buffer formulations (Table 6); type: physicochemical; settings: 50 mM phosphate buffer pH 7.4 + acetonitrile (3:1), 2° C. and 37° C., read-out: Chemical stability (relative purity loss), Buffer pH 7.4
Numbered stars: 1 amine (or outer) side, 2 acyl side, 3 side chain; on linkers, the order of the positions; unused ones are H or OH. Bridge positions count the residues as written; N and C are the ends. Square brackets hold non-standard residues; d marks the D form. Peptide text beside a SMILES is read from it. * marks the point of attachment. Lys(Me,(CH2)4NMe(CH2)4CO) = CN(CCCCC(=O)[*:3])CCCCN(C)CCCC[C@H](N[*:1])C(=O)[*:2]; Trp(7-Me) = Cc1cccc2c(C[C@H](N)C(=O)O)c[nH]c12; NH(CH2)9CO = O=C(CCCCCCCCCN[*:1])[*:2]; 2Nal = N[C@@H](Cc1ccc2ccccc2c1)C(=O)O; C12 diacid = O=C(O)CCCCCCCCCCC(=O)*; 3Pal = N[C@@H](Cc1cccnc1)C(=O)O; Aun = NCCCCCCCCCCC(=O)O; Thp = NC1(C(=O)O)CCOCC1; Me2NCH2CH2 = CN(C)CC*; Aib = CC(C)(N)C(=O)O; Sar = CNCC(=O)O
Collected degraded at 24 h values appear next to each entry.
Unit % implied. Number only.

Past entries and their recorded results:
Cc1cccc2c(C[C@@H]3NC(=O)CCCCCCCCCCC(=O)NCCCC[C@@H](C(=O)N[C@@H](CC(N)=O)C(=O)N[C@@H](Cc4cccnc4)C(=O)N(C)CC(N)=O)NC(=O)C(C)(C)NC(=O)[C@H](Cc4ccc5ccccc5c4)NC(=O)[C@H](Cc4ccc(OCCN(C)C)cc4)NC(=O)C4(CCOCC4)NC(=O)[C@H](CCC(N)=O)NC3=O)c[nH]c12 [compound 10] ([Trp(7-Me)]Q[Thp]Y(Me2NCH2CH2)[2Nal][Aib]KN[3Pal][Sar]-NH2; linker N-7 via C12 diacid) | 0
CC(=O)NCCCC[C@@H]1NC(=O)[C@H](Cc2c[nH]c3c(C)cccc23)NC(=O)CCCCCCCCCCNC(=O)CC[C@@H](C(=O)N[C@@H](CC(N)=O)C(=O)N[C@@H](Cc2cccnc2)C(=O)N(C)CC(N)=O)NC(=O)C2(CCOCC2)NC(=O)[C@H](Cc2ccc3ccccc3c2)NC(=O)[C@H](Cc2ccc(OCCN(C)C)cc2)NC(=O)C2(CCOCC2)NC1=O [compound 50] ([Aun][Trp(7-Me)]K(Ac)[Thp]Y(Me2NCH2CH2)[2Nal][Thp]EN[3Pal][Sar]-NH2; lactam N-8) | 0.1
CC(=O)NCCCC[C@@H]1NC(=O)[C@H](Cc2c[nH]c3c(C)cccc23)NC(=O)CCCCN(C)CCCCN(C)CCCC[C@@H](C(=O)N[C@@H](CC(N)=O)C(=O)N[C@@H](Cc2cccnc2)C(=O)N(C)CC(N)=O)NC(=O)C(C)(C)NC(=O)[C@H](Cc2ccc3ccccc3c2)NC(=O)[C@H](Cc2ccc(OCCN(C)C)cc2)NC(=O)C2(CCOCC2)NC1=O [compound 32] ([Trp(7-Me)]K(Ac)[Thp]Y(Me2NCH2CH2)[2Nal][Aib][Lys(Me,(CH2)4NMe(CH2)4CO)]N[3Pal][Sar]-NH2; lactam N-7) | 0.5

The value of degraded at 24 h measured for the compound Cc1cccc2c(C[C@@H]3NC(=O)CCCCN(C)CCCCN(C)CCCC[C@@H](C(=O)N[C@@H](CC(N)=O)C(=O)N[C@@H](Cc4cccnc4)C(=O)N(C)CC(N)=O)NC(=O)C(C)(C)NC(=O)[C@H](Cc4ccc5ccccc5c4)NC(=O)[C@H](Cc4ccc(OCCN(C)C)cc4)NC(=O)C4(CCOCC4)NC(=O)[C@H](CCC(N)=O)NC3=O)c[nH]c12 [compound 46] ([Trp(7-Me)]Q[Thp]Y(Me2NCH2CH2)[2Nal][Aib][Lys(Me,(CH2)4NMe(CH2)4CO)]N[3Pal][Sar]-NH2; lactam N-7) turned out to be 0

# compound Cc1cccc2c(C[C@@H]3NC(=O)CCCCCCCCCNC(=O)CC[C@@H](C(=O)N[C@@H](CC(N)=O)C(=O)N[C@@H](Cc4cccnc4)C(=O)N(C)CC(N)=O)NC(=O)C(C)(C)NC(=O)[C@H](Cc4ccc5ccccc5c4)NC(=O)[C@H](Cc4ccc(OCCN(C)C)cc4)NC(=O)C4(CCOCC4)NC(=O)[C@H](CC(C)C)NC3=O)c[nH]c12 [compound 8] ([NH(CH2)9CO][Trp(7-Me)]L[Thp]Y(Me2NCH2CH2)[2Nal][Aib]EN[3Pal][Sar]-NH2; lactam N-8) ; its degraded at 24 h = 0
